Target: Mitogen-activated protein kinase kinase kinase 14 (Homo sapiens)
Sequence (Q99558 whole entry): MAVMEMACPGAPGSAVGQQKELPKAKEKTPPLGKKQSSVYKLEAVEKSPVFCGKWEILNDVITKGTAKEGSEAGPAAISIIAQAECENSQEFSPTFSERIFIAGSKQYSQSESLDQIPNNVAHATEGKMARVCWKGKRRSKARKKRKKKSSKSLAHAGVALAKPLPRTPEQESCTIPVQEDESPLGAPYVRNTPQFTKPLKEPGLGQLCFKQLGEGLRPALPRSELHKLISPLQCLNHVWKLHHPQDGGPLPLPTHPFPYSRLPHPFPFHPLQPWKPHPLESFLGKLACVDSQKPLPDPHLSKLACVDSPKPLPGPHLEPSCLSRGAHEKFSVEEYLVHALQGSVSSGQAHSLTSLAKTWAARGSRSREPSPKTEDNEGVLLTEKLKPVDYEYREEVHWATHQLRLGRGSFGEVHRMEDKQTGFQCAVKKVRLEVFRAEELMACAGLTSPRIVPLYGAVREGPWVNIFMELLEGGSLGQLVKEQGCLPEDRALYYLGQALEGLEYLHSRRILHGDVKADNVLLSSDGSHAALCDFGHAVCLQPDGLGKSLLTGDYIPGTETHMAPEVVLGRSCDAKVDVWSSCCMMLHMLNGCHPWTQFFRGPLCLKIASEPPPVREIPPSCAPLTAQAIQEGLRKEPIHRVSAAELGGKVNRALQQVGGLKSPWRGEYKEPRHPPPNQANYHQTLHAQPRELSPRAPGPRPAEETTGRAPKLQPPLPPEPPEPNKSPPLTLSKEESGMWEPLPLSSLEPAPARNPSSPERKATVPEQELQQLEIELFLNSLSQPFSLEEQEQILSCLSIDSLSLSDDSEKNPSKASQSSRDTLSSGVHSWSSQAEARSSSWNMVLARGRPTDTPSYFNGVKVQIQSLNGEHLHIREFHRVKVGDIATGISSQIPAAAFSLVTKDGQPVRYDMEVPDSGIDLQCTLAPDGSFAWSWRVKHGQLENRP
Assay: Inhibition of MAP3K14 (unknown origin)
reported property: pIC50
Value format note: pIC50 is -log10 of concentration (mol/L); just state the number.

Lookup: Annotate the compound C[C@@H]1CN(c2cc(-c3n[nH]c4ccc(OC5(C)CC5)cc34)ncn2)C[C@H](C)O1 with its measured pIC50.
Found: 6.61

====

Test: Inhibition of adenosine transporter (unknown origin)
Design: species or system Homo sapiens
reported property: pIC50
Value format note: pIC50 is -log10 of concentration (mol/L); just state the number.

Lookup: Annotate the compound C[C@@H]1CN(c2cc(-c3n[nH]c4ccc(OC5(C)CC5)cc34)ncn2)C[C@H](C)O1 with its measured pIC50.
Found: 5.01
